- Tested on: HOP-92
- EXPERIMENTAL PROTOCOL: NCI tumour cell line growth inhibition, 48 h
Activity calls are given as the source filed them. Rule as the data show it: active = GI50 up to about 1.1 µM and inactive = higher.
Entries annotated with measured GI50

Prompt: System HOP-92. Read-out GI50. Item CN1C=C(C(N)=O)Cc2ccsc21 . Report value.
Completion: > 100 µM (inactive)

Prompt: System HOP-92. Read-out GI50. Item Cc1ccc(NC(=O)c2cc3ccccc3c(/N=N/c3cc(S(=O)(=O)O)ccc3O)c2O)c(C)c1 . Report value.
Completion: 21.2 µM (inactive)

Prompt: System HOP-92. Read-out GI50. Item CN1C2CCC1CC(CCNC(c1ccccc1)c1ccccc1)C2 (stereo not given) . Report value.
Completion: 18 µM (inactive)

Prompt: System HOP-92. Read-out GI50. Item COC1=CC(=O)c2c(cc(COP(=O)(N(C)CCBr)N(C)CCBr)n2C)C1=O . Report value.
Completion: 0.69 µM (active)

Prompt: System HOP-92. Read-out GI50. Item CC1(C)OCC=CCO1 . Report value.
Completion: > 100 µM (inactive)

====

- System: MDA-MB-231
- EXPERIMENTAL PROTOCOL: NCI tumour cell line growth inhibition, 48 h
Calls of active or inactive are those of the source. No stated cut-off is given here; in the data, active = GI50 up to about 1.1 µM and inactive = higher.
Would you mind answering with one of these outcomes? active, inactive

Answered cases to consult:
CCOP(=O)(OCC)C(c1ccccc1)N(C(=O)NC(F)(F)F)c1cccc(F)c1 (centres undefined)
inactive
c1ncn(C23C4C5C6C4C2C6C53)n1 (centres undefined)
inactive
CC(C)CCCC(C)[C@H]1CC[C@H]2[C@@H]3CC[C@H]4C[C@@H](CCC=C(c5cc(Cl)c(O)c(C(=O)O)c5)c5cc(Cl)c(O)c(C(=O)O)c5)CC[C@]4(C)[C@H]3CC[C@]12C (some centres undefined)
inactive

Prompt: // param item: N=C(N)N/N=C/c1c(-c2ccc(Cl)c([N+](=O)[O-])c2)nc2sc(Cl)cn12 ; yields the recorded call
Completion: inactive

Prompt: // param item: CC(Oc1ccccc1Cl)C(=O)NN1C(=O)CSC1c1ccccc1 (centres undefined) ; yields the recorded call
Completion: inactive

Prompt: // param item: C=C(C)C(=O)OC1CC2=CC(CC3(C)OC3C3OC(=O)C(=C)C13)OC2=O (centres undefined) ; yields the recorded call
Completion: inactive

Prompt: // param item: CCN(CC)CC[n+]1ccc2c(C)c3[nH]c4ccccc4c3c(C)c2c1 ; yields the recorded call
Completion: active

Prompt: // param item: CCOC(=O)C1(N)CCc2[nH][nH]c(=O)c2C1 (centres undefined) ; yields the recorded call
Completion: inactive

Prompt: // param item: Cc1ccc(/C=N/n2c(Cc3ccccc3)n[nH]c2=O)cc1 ; yields the recorded call
Completion: inactive

====

- Tested on: HOP-92
- EXPERIMENTAL PROTOCOL: NCI tumour cell line growth inhibition, 48 h
Calls of active or inactive are those of the source. No stated cut-off is given here; in the data, active = GI50 up to about 1.1 µM and inactive = higher.
READOUT NAME: GI50

Solved entries (count: 8):
c1ccc(C2=C(c3ccccc3)Sc3nnc(CCCCCCCCc4nnc5n4NC(c4ccccc4)=C(c4ccccc4)S5)n3N2)cc1
54.8 µM (inactive)
Cc1ccc(S(=O)(=O)CC2CCCn3c2c(C#N)c2ccccc23)cc1 (centres undefined)
> 100 µM (inactive)
N#CCN1CCOCCOCCN(CC#N)CCOCCOCC1
> 100 µM (inactive)
CC(=O)O[C@H]1C(=O)[C@@]2(C)[C@H]([C@H](OC(=O)c3ccccc3)[C@]3(O)C[C@H](OC(=O)[C@H](O)[C@@H](NC(=O)c4cccc(N=[N+]=[N-])c4)c4ccccc4)C(C)=C1C3(C)C)[C@]1(OC(C)=O)CO[C@@H]1C[C@@H]2O
0.0109 µM (active)
CC(C)(C)OC(=O)N1CCC(NC(=O)NC2CCN(C(=O)OC(C)(C)C)CC2)CC1
> 100 µM (inactive)
C=CCOc1ccc(C2c3c(n[nH]c3O)CC(C)(O)C2C(=O)OC)cc1OC (centres undefined)
> 100 µM (inactive)
CC(=O)OC1COC(N2C(=O)/C(=N\Nc3ccc([N+](=O)[O-])cc3)c3cc(Br)c([N+](=O)[O-])cc32)C(OC(C)=O)C1OC(C)=O (centres undefined)
8.26 µM (inactive)
CCOC(=O)[C@@H]1[C@@H](c2ccccc2)N(C)O[C@@]1(c1ccccc1)C(F)(F)F
> 100 µM (inactive)

With those in mind, consider the next compound.
Prompt: Respond only with GI50 recorded for C=C1[C@H](OC(=O)C(C)C)[C@]23CC4(O)[C@@H]5[C@@]6(C)CCC[C@]57C([C@@H]2C[C@@]1(O)[C@H](O)[C@@H]73)N4C6
Completion: > 100 µM (inactive)

====

- Test system: IGROV-1
- EXPERIMENTAL PROTOCOL: NCI tumour cell line growth inhibition, 48 h
Activity calls are given as the source filed them. No stated cut-off is given here; in the data, active = GI50 up to about 1.1 µM and inactive = higher.
READOUT NAME: GI50

COc1ccc2n[se]nc2c1
38.9 µM (inactive)

With those in mind, consider the next compound.
Prompt: Respond only with GI50 recorded for CC(C)COC(=O)N1N=NC2C3CC(=O)C(O3)C21 (stereo unspecified)
Completion: > 100 µM (inactive)

====

- System: RXF 393
- EXPERIMENTAL PROTOCOL: NCI tumour cell line growth inhibition, 48 h
Calls of active or inactive are those of the source. Cut-off read from the data, not from the text of the source: active = GI50 up to about 1.1 µM and inactive = higher.
READOUT NAME: GI50

O=C(/C=C/c1ccc(O)c(O)c1)OCCOC(=O)/C=C/c1ccc(O)c(O)c1
22.6 µM (inactive)
N/N=c1\c2ccccc2c2ccc3c4ccccc4/c(=N\N)c3c12
> 100 µM (inactive)

Prompt: Respond only with GI50 recorded for O=C(O/C(=C(/N=N/c1ccccc1)c1ccccc1)c1ccccc1)c1ccccc1
Completion: > 100 µM (inactive)

Prompt: Respond only with GI50 recorded for C/C(=N\NC(=S)Nc1ccc(C(=O)O)cc1)c1ccccn1
Completion: 35 µM (inactive)

Prompt: Respond only with GI50 recorded for NNC(=O)N/N=C1\C(=O)N(c2nccs2)C(=O)C(=O)C1c1nc2ccccc2s1 (centres undefined)
Completion: > 100 µM (inactive)

Prompt: Respond only with GI50 recorded for Cc1cc2c(cc1C)[n+]([O-])c(C(=O)N1CCN(c3ccc([N+](=O)[O-])cc3)CC1)c(C)[n+]2[O-]
Completion: 14.4 µM (inactive)

Prompt: Respond only with GI50 recorded for CC1(C)C[C@H](O)[C@H](O)[C@]23C(=O)O[C@H](O)[C@H]2C(C=O)=CC[C@@H]13
Completion: > 100 µM (inactive)

Prompt: Respond only with GI50 recorded for Cc1nc2c(O)nc3ccccc3c2o1
Completion: > 100 µM (inactive)

Prompt: Respond only with GI50 recorded for COc1ccc(NC(C)=O)cc1N1C(=O)/C(=C\c2cc(OC)c(OC)c(OC)c2)S(=O)(=O)C1c1ccccc1 (centres undefined)
Completion: 74.6 µM (inactive)

====

- System: HCC 2998
- EXPERIMENTAL PROTOCOL: NCI tumour cell line growth inhibition, 48 h
The source made the active and inactive calls. Cut-off read from the data, not from the text of the source: active = GI50 up to about 1.1 µM and inactive = higher.
READOUT NAME: GI50

O=[N+]([O-])c1cc(C(F)(F)F)cc2c1SC1=Nc3ccccc3CN12
> 100 µM (inactive)
NS(=O)(=O)c1ccc(NNc2c3ccccc3nc3c(C(=O)Nc4ccc(S(N)(=O)=O)cc4)cccc23)cc1
17.4 µM (inactive)
O=NNc1cnc(O)nc1O
> 100 µM (inactive)
COc1ccc(NC(=O)c2cc(OC)c(OC)c(OC)c2)cc1
42.2 µM (inactive)
CC1(CO)OC(n2cnc3cncnc32)CC1O (stereo unspecified)
> 100 µM (inactive)

Prompt: Respond only with GI50 recorded for O=c1n(Cc2ccccc2)c2ccccc2n1CC1CS1 (stereo unspecified)
Completion: > 100 µM (inactive)

====

- Tested on: OVCAR-5
- EXPERIMENTAL PROTOCOL: NCI tumour cell line growth inhibition, 48 h
Activity calls are given as the source filed them. Cut-off read from the data, not from the text of the source: active = GI50 up to about 1.1 µM and inactive = higher.
READOUT NAME: GI50

CCc1cc(Cc2cc(CC)c(NC(=O)C(=O)CC(=O)c3sc(-c4cccnc4)nc3C)c(CC)c2)cc(CC)c1NC(=O)C(=O)CC(=O)c1sc(-c2cccnc2)nc1C
> 100 µM (inactive)
CCOC(=O)NN(C(=O)OCC)c1c(C)cc(C)cc1C
> 100 µM (inactive)
C=CCOc1ccc(C2c3c(n[nH]c3O)CC(C)(O)C2C(=O)OC)cc1OC (centres undefined)
> 100 µM (inactive)

Prompt: Respond only with GI50 recorded for O=C1c2ccccc2-c2cccc3ccc(Cc4ccc5ccccc5c4)c1c23
Completion: > 100 µM (inactive)

Prompt: Respond only with GI50 recorded for COC(=O)C(/C(=N\O)C(=O)Nc1ccc(Br)cc1)c1nc2ccccc2nc1O (centres undefined)
Completion: > 100 µM (inactive)

Prompt: Respond only with GI50 recorded for O=[N+]([O-])C(/C=N/Nc1ccccc1)/C=N/Nc1ccccc1
Completion: > 100 µM (inactive)

Prompt: Respond only with GI50 recorded for O=S(=O)(/N=c1\[nH]c(-c2cc(O)c(O)c(O)c2)cs1)c1ccc(Cl)cc1Cl
Completion: 18.2 µM (inactive)

Prompt: Respond only with GI50 recorded for Nc1c(-c2ccccc2[N+](=O)[O-])nc2ccccn12
Completion: > 100 µM (inactive)

Prompt: Respond only with GI50 recorded for COc1cc2c3cc1Oc1c(O)c(OC)cc4c1C(Cc1ccc(O)c(c1)Oc1ccc(cc1)CC3N(C)CC2)N(C)CC4 (centres undefined)
Completion: 22.7 µM (inactive)
